# Tested on: MYLK
# experimentalSetup: concentration: 1 μM, replicates: in singlicate; n = 1
assayEndpoint: %Inh (%)
Write the answer as a number in %, unit excluded.

# %Inh (molecule: O=C(Nc1n[nH]c2nc(-c3cccs3)c(Br)cc12)C1CCCC1 ) is 24

# %Inh (molecule: CCc1ccc(-c2ccc3c(c2)-c2n[nH]cc2S(=O)(=O)N3C)cc1 ) is 0

# %Inh (molecule: CN1c2ccc(-c3ccc(C(N)=O)cc3)cc2-c2[nH]ncc2S1(=O)=O ) is 73

# %Inh (molecule: CSc1ccc(-c2nc3n(c2-c2ccncc2)CCC3)cc1 ) is 0

# %Inh (molecule: CC(=O)c1c(C)c2cnc(Nc3ccn(C)n3)nc2n(C2CCCC2)c1=O ) is 0

# %Inh (molecule: CS(=O)(=O)Cc1ccc(Nc2nccc(-c3c(-c4cccc(NC(=O)C5CCCCC5)c4)nn4ncccc34)n2)cc1 ) is 31

# %Inh (molecule: FC(F)(F)c1ccccc1-c1cc(-c2c[nH]nc2-c2ccccn2)ccn1 ) is 8

# %Inh (molecule: Cc1ccc(NC(=O)Nc2ccccc2F)cc1-c1ccc(C(=O)Nc2ccncc2)cc1 ) is 23

# %Inh (molecule: Cc1ccccc1-c1cc(-c2c[nH]nc2-c2ccccn2)ccn1 ) is 1

---

# Test system: CSNK1A1
# experimentalSetup: concentration: 1 μM, replicates: in singlicate; n = 1
assayEndpoint: %Inh (%)
Write the answer as a number in %, unit excluded.

# %Inh (molecule: COc1ccc(Nc2nccc(-c3ccc(NC(=O)c4cc5cc(F)ccc5[nH]4)cc3)n2)cc1 ) is 0

# %Inh (molecule: COC(=O)C(NC(=O)NC1CCN(c2ccnc(Nc3ccc(F)cc3)n2)C1)c1ccccc1 (stereo not shown) ) is 0

# %Inh (molecule: O=C1NC(=O)C(c2ccc(Cl)cc2)=C1Nc1cccc(Cl)c1 ) is 22

# %Inh (molecule: O=C(Nc1n[nH]c2cc(-c3ccsc3)ccc12)C1CC1 ) is 0

---

# System: ERK3
# Construct: gene MAPK6
# experimentalSetup: concentration: 1 μM, replicates: in singlicate; n = 1
assayEndpoint: %Inh (%)
Write the answer as a number in %, unit excluded.

# %Inh (compound: CCCCc1nn2ncccc2c1-c1ccnc(NC2CC2)n1 [GW684374] ) is 3

# %Inh (compound: COc1cccc(C2=C(Nc3cc(Cl)c(O)c(Cl)c3)C(=O)NC2=O)c1 [SB-390767] ) is 0

# %Inh (compound: COc1ccc(CSc2nnc(-c3ccc4nccn4c3)o2)cc1C(F)(F)F ) is 18

# %Inh (compound: CNc1nc(-c2ccc3c(N)n[nH]c3c2)cc(N2C[C@@H](C(=O)Nc3ccccc3)CC[C@H]2C)n1 [GSK2298859] ) is 6

# %Inh (compound: O=C(Nc1n[nH]c2nc(-c3ccco3)c(Br)cc12)C1CCN(Cc2ccccc2)C1.O=C(O)[C@H](O)[C@@H](O)C(=O)O (centres unmarked) [SB-742034] ) is 0

---

pKd: −log10 of the molar value.
assayEndpoint: pKd

Reading of pKd for COc1ccc(Nc2nccc(NCCNC(=O)Nc3cc(C)ccc3C)n2)cc1 with CHEK2: < 5.00

---

Task for the reader: assign each of the following compounds its reported %Inh.
# Tested on: MAP4K3
# experimentalSetup: concentration: 1 μM, replicates: in singlicate; n = 1
Write the answer as a number in %, unit excluded.

Reading of %Inh for CS(=O)(=O)Cc1ccc(Nc2nccc(-c3c(-c4cccc(NC(=O)C5CCCCC5)c4)nn4ncccc34)n2)cc1 with MAP4K3: 0

Reading of %Inh for O=c1cc(N2CCOCC2)nc2n(Cc3ccccc3F)ccn12 with MAP4K3: 0

Reading of %Inh for Cc1ccccc1Cn1ccn2c(=O)cc(N3CCOCC3)nc12 with MAP4K3: 0

Reading of %Inh for COc1cccc(CNC(=O)NC2CCN(c3ccnc(Nc4ccc(F)cc4)n3)C2)c1 (stereo not drawn) with MAP4K3: 8

Reading of %Inh for Fc1ccc(-c2nc3n(c2-c2ccncc2)CCS3)cc1 with MAP4K3: 0

Reading of %Inh for O=C1NC(=O)C(c2ccc(Cl)cc2)=C1Nc1cccc(Cl)c1 with MAP4K3: 1

Reading of %Inh for CNc1nc(-c2ccc3c(N)n[nH]c3c2)cc(N2C[C@@H](C(=O)Nc3ccccc3)CC[C@H]2C)n1 with MAP4K3: 0

Reading of %Inh for COc1nccc(-c2c(-c3ccc(F)cc3)ncn2CCCN2CCOCC2)n1 with MAP4K3: 0

Reading of %Inh for COC(=O)c1cccc(NC(=O)NC2CCN(c3ccnc(Nc4ccc(OC)cc4)n3)C2)c1 (stereo not drawn) with MAP4K3: 0

Reading of %Inh for Cc1ccccc1-c1cc(-c2c[nH]nc2-c2ccccn2)ccn1 with MAP4K3: 0

Reading of %Inh for O=c1cc(N2CCOCC2)nc2n(Cc3cccc(Cl)c3Cl)c3ccccc3n12 with MAP4K3: 0

Reading of %Inh for Nc1nccc(-c2c(-c3ccc(F)cc3)ncn2C2CCN(Cc3ccccc3)CC2)n1 with MAP4K3: 16

Reading of %Inh for COc1ccc(-c2coc3ccc(-c4nnc(C)o4)cc23)cc1 with MAP4K3: 0

Reading of %Inh for COc1ccc(CSc2nnc(-c3ccc4c(c3)CCO4)o2)cc1 with MAP4K3: 0

Reading of %Inh for O=C1NC(=O)C(c2ccc(Cl)cc2)=C1Nc1ccc(O)cc1 with MAP4K3: 0

Reading of %Inh for COc1ccc(Nc2nccc(-c3ccc(NC(=O)c4cc5cc(F)ccc5[nH]4)cc3)n2)cc1 with MAP4K3: 0

Reading of %Inh for CCc1ccc(-c2ccc3c(c2)-c2n[nH]cc2S(=O)(=O)N3C)cc1 with MAP4K3: 15

Reading of %Inh for COC(=O)C(Cc1ccccc1)NC(=O)NC1CCN(c2ccnc(Nc3ccc(F)cc3)n2)C1 (stereo not drawn) with MAP4K3: 0

---

# Test system: TYRO3
# experimentalSetup: concentration: 1 μM, replicates: in singlicate; n = 1
assayEndpoint: %Inh (%)
Write the answer as a number in %, unit excluded.

Reading of %Inh for COc1cccc(NC(=O)Nc2ccc(C)c(-c3ccc(C(=O)Nc4ccncc4)cc3)c2)c1 with TYRO3: 0

Reading of %Inh for Cc1c(Cn2c3ccccc3n3c(=O)cc(N4CCOCC4)nc23)cccc1C(F)(F)F with TYRO3: 0

Reading of %Inh for Cc1cnc(N)c(/C=C/c2cncc(C(=O)NCCc3ccc(Cl)cc3Cl)c2)c1.Cl with TYRO3: 0

Reading of %Inh for CC(C)c1ccc(O)cc1Nc1ccnc2ccc(C(F)(F)F)cc12 with TYRO3: 0

Reading of %Inh for COc1ccc(Nc2nccc(N3CCC(NC(=O)C(C)c4ccc(Cl)cc4)C3)n2)cc1 (stereo not shown) with TYRO3: 22

Reading of %Inh for O=c1cc(N2CCOCC2)nc2n(Cc3ccccc3F)ccn12 with TYRO3: 0

Reading of %Inh for COc1cccc(CNC(=O)NC2CCN(c3ccnc(Nc4ccc(F)cc4)n3)C2)c1 (stereo not shown) with TYRO3: 17

Reading of %Inh for Cc1ccc(NC(=O)Nc2ccccc2)cc1-c1ccc(C(=O)Nc2ccncc2)cc1 with TYRO3: 15

Reading of %Inh for COC(=O)C(Cc1ccccc1)NC(=O)NC1CCN(c2ccnc(Nc3ccc(F)cc3)n2)C1 (stereo not shown) with TYRO3: 0

Reading of %Inh for COc1cccc(C2=C(Nc3cc(Cl)c(O)c(Cl)c3)C(=O)NC2=O)c1 with TYRO3: 29

Reading of %Inh for Nc1cccc(-c2ccc3c(N)n[nH]c3c2)n1 with TYRO3: 0

Reading of %Inh for Cc1ccc(NC(=O)c2ccc(Cl)cc2)cc1-c1ccc(C(=O)Nc2ccncc2)cc1 with TYRO3: 0

Reading of %Inh for Cn1cncc1C(=O)NC1CCN(c2ccnc(Nc3ccc(F)cc3)n2)C1 (stereo not shown) with TYRO3: 0

Reading of %Inh for COc1ccc(CSc2nnc(-c3ccc4nccn4c3)o2)cc1C(F)(F)F with TYRO3: 3

Reading of %Inh for CNc1nc(-c2ccc3c(N)n[nH]c3c2)cc(N2C[C@@H](C(=O)Nc3ccccc3)CC[C@H]2C)n1 with TYRO3: 0

Reading of %Inh for O=c1cc(N2CCOCC2)nc2n(Cc3cccc(Cl)c3Cl)c3ccccc3n12 with TYRO3: 0

Reading of %Inh for O=C(Nc1n[nH]c2nc(-c3cccs3)c(Br)cc12)C1CCCC1 with TYRO3: 1

Reading of %Inh for Nc1ncnc2occ(-c3ccc4c(c3)CCN4C(=O)Cc3cc(F)ccc3F)c12 with TYRO3: 0

Reading of %Inh for COc1ccc(Nc2nccc(N3CCC(NC(=O)c4cc5ccccc5s4)C3)n2)cc1 (stereo not shown) with TYRO3: 0

Reading of %Inh for Cl.Cl.Cl.N#Cc1ccc(CCNc2nccc(-c3cccc(CN4CCNCC4)c3)n2)cc1 with TYRO3: 23

Reading of %Inh for CC[C@@H]1CO[C@H](C(=O)Nc2ccccc2)CN1c1cc(-c2ccc3c(N)n[nH]c3c2)nc(NC)n1 with TYRO3: 0

Reading of %Inh for COC(=O)C(NC(=O)NC1CCN(c2ccnc(Nc3ccc(F)cc3)n2)C1)c1ccccc1 (stereo not shown) with TYRO3: 0

Reading of %Inh for CCn1c(-c2ccccc2)nc2cnccc21 with TYRO3: 0

Reading of %Inh for CC(=O)c1c(C)c2cnc(Nc3ccn(C)n3)nc2n(C2CCCC2)c1=O with TYRO3: 0

Reading of %Inh for Cn1cncc1-c1cc2c(Nc3ccc(OCc4ccccc4)cc3)ncnc2cn1 with TYRO3: 0

Reading of %Inh for Cc1c(Cn2c(C)c(C)n3c(=O)cc(N4CCOCC4)nc23)cccc1C(F)(F)F with TYRO3: 0

Reading of %Inh for c1ccc(-c2ccnc3[nH]ccc23)cc1 with TYRO3: 0

Reading of %Inh for CC(C)c1cc(-c2ccc3c(N)n[nH]c3c2)nc(N)n1 with TYRO3: 0
